This collection of values is drawn from PubChem BioAssay (NCATS).

test: Viability qHTS for spleen associated tyrosine kinase inhibitor (SYKi) naive MV4-11 cells (AID 1963823); conditions: MV4-11 AML viability, CellTiter-Glo luminescence, 72 h; series mostly up to 45 µM; further: nearly all actives have a fitted effect of over 40% in size
Records with an inconclusive call do not appear. The source made the active and inactive calls. The call rests on the fitted dose curve; in most records, active means well fitted cell-killing curve with a large enough effect; inconclusive means small, poorly fitted or top-dose-only effect, or effect the other way; inactive means no such curve, though single readings can be large or run the other way.
Outcomes: class 1 for active, class 0 for inactive

[[record]]
compound = "CCc1cc(-c2n[nH]c(C)c2-c2ccc3c(c2)OCCO3)c(O)cc1O"
group = "class 1"

[[record]]
compound = "CCC(CC)n1ccc2c(C(=O)NCc3c(C)cc(C)[nH]c3=O)cc(C#N)cc21"
group = "class 0"

[[record]]
compound = "C=C1[C@H]2CCC3[C@]4(C)CCC[C@@](C)(C(=O)O)C4CC[C@]3(C2)[C@H]1OC(C)=O (stereo not given in full)"
group = "class 0"

[[record]]
compound = "COc1cc2c(NC3CCN(C(C)C)CC3)nc(N3CCC(F)(F)CC3)nc2cc1OCCCN1CCCC1"
group = "class 1"

[[record]]
compound = "O=S(c1cc(Cl)cc(Cl)c1O)c1cc(Cl)cc(Cl)c1O"
group = "class 0"

[[record]]
compound = "C[C@@H]1C[C@@H](O)[C@@]23CO[C@]2(CO)C[C@@H](O)CC3[C@@]12CC(c1ccoc1)OC2=O (stereo not given in full)"
group = "class 0"

[[record]]
compound = "NS(=O)(=O)NCCNc1nonc1C(=Nc1ccc(F)c(Br)c1)NO"
group = "class 0"

[[record]]
compound = "C[C@]12CC[C@@H]3c4ccc(O)cc4CC[C@H]3[C@@H]1C[C@@H](O[C@@H]1O[C@H](C(=O)O)[C@@H](O)[C@H](O)[C@H]1O)[C@@H]2O"
group = "class 0"

[[record]]
compound = "Cc1ccc2nc(NC(=O)CSc3nc4c(c(=O)n3-c3ccc(F)cc3)SCC4)sc2c1"
group = "class 0"

[[record]]
compound = "O=C(O)C[C@H]1CCC(=O)[C@@H]1C/C=C\\CCOC1OC(CO)C(O)C(O)C1O (stereo not given in full)"
group = "class 0"

